Tested on: MV4-11
Experiment: Cytotoxicity towards MV4-11 cell line
Type: cell-based
Conditions: Homo sapiens
I'd be grateful if you could share measured IC50 for these entries.

Inquiry: // lookup IC50 for "O=C(NCCCn1ccnc1)c1ccc(-n2cccn2)c(C#Cc2ccccc2C(F)(F)F)c1"
Reply text: < 1 µM

Inquiry: Note, next up: "O=C(NCCCc1cn[nH]c1)c1ccc(-n2cccn2)c(C#Cc2cccc(F)c2)c1"
Reply text: < 1 µM

Inquiry: Note, next up: "O=C(NCCCc1ccccn1)c1ccc(-n2cccn2)c(C#Cc2ccccc2)c1"
Reply text: 10 to 20 µM

Inquiry: Note, next up: "O=C(NCCCn1ccnc1)c1ccc(-n2cccn2)c(C#Cc2cccnc2)c1"
Reply text: < 1 µM

Inquiry: Note, next up: "O=C(NCCCc1cn[nH]c1)c1ccc(N2CCOCC2)c(C#Cc2ccncc2)c1"
Reply text: < 1 µM

Inquiry: Note, next up: "Cc1ccc(C(=O)NCCCc2cn[nH]c2)cc1C#Cc1ccccc1"
Reply text: < 1 µM

Inquiry: Note, next up: COC1CCCN(c2ncc(C(=O)NCCCc3cn[nH]c3)cc2C#Cc2ccc(F)cc2)C1 (stereo not drawn)
Reply text: < 1 µM

Inquiry: Note, next up: "C#Cc1cc(C(=O)NCCCc2cn[nH]c2)ccc1-n1cccn1"
Reply text: 10 to 20 µM

Inquiry: Note, next up: "O=C(NCCCc1ccccn1)c1ccc(-n2cccn2)c(C#Cc2cccnc2)c1"
Reply text: 10 to 20 µM

* * *

Test system: U-937
Assay: Cytotoxicity towards U-937 cell line
Format: cell-based
Details: Homo sapiens
pIC50: −log10 of the molar value.
reported.metric: pIC50

Inquiry: // lookup pIC50 for "O=C(NCCCc1cn[nH]c1)c1ccc(N2CCOCC2)c(C#Cc2ccc(F)cn2)c1"
Reply text: > 6.00

Inquiry: Note, next up: "CC(C)(O)C#Cc1cc(C(=O)NCCCc2cn[nH]c2)ccc1-n1cccn1"
Reply text: < 4.70

Inquiry: Note, next up: "COc1ccc(C#Cc2cc(C(=O)NCCCc3cn[nH]c3)ccc2N2CCOCC2)cn1"
Reply text: > 6.00

Inquiry: Note, next up: "CN(C)c1ccc(C(=O)NCCCc2cn[nH]c2)cc1C#Cc1ccccc1"
Reply text: > 6.00

Inquiry: Note, next up: "N#Cc1cccc(C#Cc2cc(C(=O)NCCCc3cn[nH]c3)ccc2-n2cccn2)c1"
Reply text: > 6.00

Inquiry: Note, next up: "O=C(NCCCc1cn[nH]c1)c1ccc(N2CCC(O)CC2)c(C#Cc2ccc(F)cc2)c1"
Reply text: > 6.00

Inquiry: Note, next up: "O=C(NCCCn1ccnc1)c1ccc(-n2cnnc2)c(C#Cc2ccccc2)c1"
Reply text: > 6.00

Inquiry: Note, next up: "O=C(NCCCc1cn[nH]c1)c1ccc(-n2cccn2)c(C#Cc2ccc(F)cn2)c1"
Reply text: > 6.00

Inquiry: Note, next up: "O=C(NCCN1C(=O)CSC1=O)c1ccc(-n2cccn2)c(C#Cc2cccnc2)c1"
Reply text: < 4.70

Inquiry: Note, next up: "C[C@@H]1CN(c2ncc(C(=O)NCCCc3cn[nH]c3)cc2C#Cc2ccc(F)cc2)C[C@H](C)O1"
Reply text: > 6.00

Inquiry: Note, next up: "O=C(Nc1ccc(Cn2ccnc2)cc1)c1ccc(-n2cccn2)c(C#Cc2ccccc2)c1"
Reply text: 4.70 to 5.00

Inquiry: Note, next up: "O=C(NCCCc1cn[nH]c1)c1ccc(-n2cccn2)c(C#Cc2cccc(C(F)(F)F)c2)c1"
Reply text: > 6.00

Inquiry: Note, next up: "O=C(NCCCn1ccnc1)c1ccc(-n2cccn2)c(C#Cc2cccc(Cl)c2)c1"
Reply text: > 6.00

Inquiry: Note, next up: O=C(NCCCc1cn[nH]c1)c1ccc(N2CCCC(CO)C2)c(C#Cc2ccc(F)cc2)c1 (centres unmarked)
Reply text: > 6.00

Inquiry: Note, next up: "Cc1cc(CN(C)C(=O)c2ccc(-n3cccn3)c(C#Cc3ccccc3)c2)no1"
Reply text: 5.30 to 6.00

Inquiry: Note, next up: "NC(=O)c1cccc(C#Cc2cc(C(=O)NCCCc3cn[nH]c3)ccc2-n2cccn2)c1"
Reply text: > 6.00

Inquiry: Note, next up: "CCc1nnc(NC(=O)c2ccc(-n3cccn3)c(C#Cc3ccccn3)c2)s1"
Reply text: < 4.70

* * *

Tested on: U-937
Assay: Cytotoxicity towards U-937 cell line
Format: cell-based
Details: Homo sapiens
pIC50: −log10 of the molar value.
reported.metric: pIC50

Inquiry: // lookup pIC50 for O=C(NCCCc1cn[nH]c1)c1ccc(N2CCC(C(F)(F)F)CC2)c(C#Cc2ccc(F)cc2)c1 [TT-03591]
Reply text: > 6.00

Inquiry: Note, next up: Cc1nn(-c2ccc(C(=O)NCCCc3cn[nH]c3)cc2C#Cc2ccccc2)c(C)c1C [TT-03626]
Reply text: > 6.00

Inquiry: Note, next up: Cc1cc(SCCNC(=O)c2ccc(-n3cccn3)c(C#Cc3ccccc3)c2)[nH]n1 [TT-02691]
Reply text: 5.00 to 5.30

Inquiry: Note, next up: O=C(NCCCc1cn[nH]c1)c1ccc(-n2cccn2)c(C#Cc2ccccn2)c1 [TT-03355]
Reply text: > 6.00

Inquiry: Note, next up: Cn1ccnc1C(C)(O)CC1CCCN1C(=O)c1ccc(-n2cccn2)c(C#Cc2ccccc2)c1 (centres unmarked) [TT-02793]
Reply text: 5.00 to 5.30

Inquiry: Note, next up: CC(CNC(=O)c1ccc(-n2cccn2)c(C#Cc2ccccc2)c1)n1cncn1 (centres unmarked) [TT-02930]
Reply text: < 4.70

Inquiry: Note, next up: C[C@@H]1CN(c2ccc(C(=O)NCCCc3cn[nH]c3)cc2C#Cc2ccc(Cl)cc2)C[C@H](C)O1 [TT-03754]
Reply text: > 6.00

Inquiry: Note, next up: O=C(NCc1cccnc1)c1ccc(-n2cccn2)c(C#Cc2cccnc2)c1 [TT-02944]
Reply text: 4.70 to 5.00

* * *

Test system: U-937
Experiment: Cytotoxicity towards U-937 cell line
Assay type: cell-based
Conditions: Homo sapiens
reported.metric: IC50

Inquiry: // lookup IC50 for O=C(NCCCc1cn[nH]c1)c1ccc(-n2cccn2)c(C#Cc2cccc(O)c2)c1 [TT-03311]
Reply text: < 1000 nM

Inquiry: Note, next up: O=C(NCCCn1ccnc1)c1ccc(CN2CCc3ccccc3C2)cc1 [TT-01902]
Reply text: 5000 to 10000 nM

Inquiry: Note, next up: O=C(NCCCn1ccnc1)c1ccc(-n2cccn2)c(C#Cc2ccc(F)cc2)c1 [TT-02746]
Reply text: < 1000 nM

Inquiry: Note, next up: O=C(NCCCc1cn[nH]c1)c1ccc(-n2ccnc2)c(C#Cc2ccc(F)cc2)c1 [TT-03627]
Reply text: < 1000 nM

Inquiry: Note, next up: O=C(NCCCc1cn[nH]c1)c1ccc(Oc2ccccc2)c(C#Cc2ccccc2)c1 [TT-03233]
Reply text: < 1000 nM

Inquiry: Note, next up: O=C(NCCCc1cn[nH]c1)c1ccc(N2CCOCC2)c(C#Cc2ccncc2)c1 [TT-03631]
Reply text: < 1000 nM

Inquiry: Note, next up: C[C@@H]1CN(c2ccc(C(=O)NCCCn3ccnc3)cc2C#Cc2ccc(F)cc2)C[C@H](C)O1 [TT-03727]
Reply text: < 1000 nM

Inquiry: Note, next up: Cc1ccc(C#Cc2cc(C(=O)NCCCn3ccnc3)ccc2-n2cccn2)cc1 [TT-02745]
Reply text: < 1000 nM

Inquiry: Note, next up: O=C(NCCCn1ccnc1)c1ccc(-n2cccn2)c(C#Cc2cccc(O)c2)c1 [TT-03312]
Reply text: < 1000 nM

Inquiry: Note, next up: Cc1ccc(C(=O)NCCCc2cn[nH]c2)cc1C#Cc1ccccc1 [TT-03248]
Reply text: < 1000 nM

Inquiry: Note, next up: C[C@@H]1CN(c2ccc(C(=O)NCCCc3cn[nH]c3)cc2C#Cc2ccc(F)cc2)C[C@H](C)O1 [TT-03670]
Reply text: < 1000 nM

Inquiry: Note, next up: O=C(NCCCn1ccnc1)c1ccc(-n2cccn2)c(C#Cc2ccc(Cl)cc2)c1 [TT-03221]
Reply text: < 1000 nM

Inquiry: Note, next up: O=C(NCCCn1ccnc1)c1ccc(-n2cccn2)cc1 [TT-03071]
Reply text: 1000 to 5000 nM

Inquiry: Note, next up: O=C(NCCCc1cn[nH]c1)c1ccc(N2CCOCC2)c(C#Cc2ccc(F)cc2)c1 [TT-03586]
Reply text: < 1000 nM

Inquiry: Note, next up: O=C(NCCCc1cn[nH]c1)c1ccc(-c2cc[n+]([O-])cc2)c(C#Cc2ccc(F)cc2)c1 [TT-03773]
Reply text: < 1000 nM

Inquiry: Note, next up: C[C@@H]1CN(c2ncc(C(=O)NC/C=C/c3cn[nH]c3)cc2C#Cc2ccc(F)cc2)C[C@H](C)O1 [TT-03751]
Reply text: < 1000 nM

Inquiry: Note, next up: COc1ccc(C#Cc2cc(C(=O)NCCCc3cn[nH]c3)ccc2-n2cccn2)cc1 [TT-03306]
Reply text: < 1000 nM

Inquiry: Note, next up: C#Cc1cc(C(=O)NCCCc2cn[nH]c2)ccc1-n1cccn1 [TT-03337]
Reply text: > 20000 nM

Inquiry: Note, next up: O=C(NCCCc1cn[nH]c1)c1ccc(N2CCOC(CN3CCCCC3)C2)c(C#Cc2ccc(F)cc2)c1 (centres unmarked) [TT-03669]
Reply text: < 1000 nM

Inquiry: Note, next up: CC(=O)N1CCN(c2ccc(C(=O)NCCCc3cn[nH]c3)cc2C#Cc2ccc(F)cc2)CC1 [TT-03599]
Reply text: < 1000 nM

Inquiry: Note, next up: O=C(NCCCn1ccnc1)c1cccc(Br)c1 [TT-03073]
Reply text: > 20000 nM

Inquiry: Note, next up: O=C(NCCCn1ccnc1)c1ccc(-n2cccn2)c(C#Cc2ccccc2C(F)(F)F)c1 [TT-02751]
Reply text: < 1000 nM

Inquiry: Note, next up: O=C(NCCCc1cn[nH]c1)c1ccc(-n2cnnc2)c(C#Cc2ccccc2)c1 [TT-03237]
Reply text: > 20000 nM

Inquiry: Note, next up: O=C(NCCCc1cn[nH]c1)c1cnc(N2CCS(=O)(=O)CC2)c(C#Cc2ccc(F)cc2)c1 [TT-03783]
Reply text: < 1000 nM

Inquiry: Note, next up: Cc1noc(CNC(=O)c2ccc(-n3cccn3)c(C#Cc3ccccc3)c2)n1 [TT-02802]
Reply text: 1000 to 5000 nM

Inquiry: Note, next up: COc1ccccc1C#Cc1cc(C(=O)NCCCc2cn[nH]c2)ccc1-n1cccn1 [TT-03330]
Reply text: < 1000 nM

Inquiry: Note, next up: Cc1ccccc1C#Cc1cc(C(=O)NCCCc2cn[nH]c2)ccc1-n1cccn1 [TT-03326]
Reply text: < 1000 nM

Inquiry: Note, next up: O=C(NCCCc1cn[nH]c1)c1ccc(-n2cccn2)c(C#Cc2ccccc2F)c1 [TT-03211]
Reply text: < 1000 nM

Inquiry: Note, next up: O=C(NCCCn1ccnc1)c1ccc(-n2cccn2)c(C#Cc2cccc(C(F)(F)F)c2)c1 [TT-03331]
Reply text: < 1000 nM

Inquiry: Note, next up: O=C(NCCCc1cn[nH]c1)c1ccc(-n2cccn2)c(C#Cc2cccc(N3CCCC3)n2)c1 [TT-03611]
Reply text: < 1000 nM

Inquiry: Note, next up: O=C(NCCCn1cccn1)c1ccc(-n2cccn2)c(C#Cc2ccccc2)c1 [TT-02709]
Reply text: < 1000 nM

Inquiry: Note, next up: O=C(NCCCn1ccnc1)c1ccc(-n2cccn2)c(C#Cc2ccccc2Cl)c1 [TT-02750]
Reply text: < 1000 nM

Inquiry: Note, next up: C[C@@H]1CN(c2ncc(C(=O)NCCCc3cn[nH]c3)cc2C#Cc2ccc(Cl)cc2)C[C@H](C)O1 [TT-03753]
Reply text: < 1000 nM

Inquiry: Note, next up: Cn1cc(-c2ccc(C(=O)NCCCc3cn[nH]c3)cc2C#Cc2ccc(F)cc2)cn1 [TT-03585]
Reply text: < 1000 nM

Inquiry: Note, next up: CC(CNC(=O)c1ccc(-n2cccn2)c(C#Cc2cccnc2)c1)n1cncn1 (centres unmarked) [TT-02933]
Reply text: > 20000 nM
